Molecular target: UniProtKB O08914
Sequence (O08914 1-579): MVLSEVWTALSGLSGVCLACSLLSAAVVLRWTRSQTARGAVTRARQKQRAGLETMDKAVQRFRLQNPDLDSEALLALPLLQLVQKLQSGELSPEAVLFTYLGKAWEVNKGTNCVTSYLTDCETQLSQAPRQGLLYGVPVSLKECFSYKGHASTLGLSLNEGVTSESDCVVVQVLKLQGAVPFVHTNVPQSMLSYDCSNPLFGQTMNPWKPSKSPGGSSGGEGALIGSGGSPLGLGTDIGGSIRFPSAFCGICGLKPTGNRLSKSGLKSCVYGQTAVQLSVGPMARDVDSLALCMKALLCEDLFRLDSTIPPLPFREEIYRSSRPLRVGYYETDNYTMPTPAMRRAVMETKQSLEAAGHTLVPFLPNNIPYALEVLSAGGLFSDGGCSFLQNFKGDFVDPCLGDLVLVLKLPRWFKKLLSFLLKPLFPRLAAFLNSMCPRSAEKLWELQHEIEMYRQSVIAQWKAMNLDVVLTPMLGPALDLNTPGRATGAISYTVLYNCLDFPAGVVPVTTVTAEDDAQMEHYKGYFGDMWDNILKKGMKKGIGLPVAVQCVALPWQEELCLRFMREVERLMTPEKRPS
Assay: biochemical
Conditions: in vitro competitive ABPP
Measurement Name: IC50

>>> recorded_result("CC(=O)N1CC2(CCN(c3ccccc3CN3CC4CN(C(=O)OC(C(F)(F)F)C(F)(F)F)CC4C3)C2)C1 (stereo not shown)")
"1000 to 10000 nM"
>>> recorded_result("CCc1cc(CN2CC3CN(C(=O)OC(C(F)(F)F)C(F)(F)F)CC3C2)n(-c2ccccc2Cl)n1 (stereo not shown)")
"1000 to 10000 nM"
>>> recorded_result("O=C(OC(C(F)(F)F)C(F)(F)F)N1CC2CN(Cc3cc(CN4CCCC4)cc(OC(F)(F)F)c3)CC2C1 (stereo not shown)")
"> 10000 nM"

Query molecule follows.
query: Give its IC50 value. Item: O=C(OC(C(F)(F)F)C(F)(F)F)N1CC2CN(Cc3ccc(Cl)cc3N3CCC4(CCOCC4)C3)CC2C1 (stereo not shown)
result: 1000 to 10000 nM

====

biological target: MAGL (Mus musculus, UniProt O35678); test: biochemical; conditions: mouse; in vitro competitive ABPP; read-out: Mouse (IC50 value, nM) MAGL
Sequence (O35678 whole entry): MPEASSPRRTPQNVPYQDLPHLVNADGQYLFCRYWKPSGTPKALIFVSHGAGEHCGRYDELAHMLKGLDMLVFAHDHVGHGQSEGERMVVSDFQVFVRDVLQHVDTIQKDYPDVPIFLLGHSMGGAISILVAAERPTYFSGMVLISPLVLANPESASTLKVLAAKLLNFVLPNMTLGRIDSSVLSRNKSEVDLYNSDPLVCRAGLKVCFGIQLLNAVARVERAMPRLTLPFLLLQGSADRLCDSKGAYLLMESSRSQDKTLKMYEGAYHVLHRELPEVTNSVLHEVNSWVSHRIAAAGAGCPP
// IC50 lookup, one value per entry

Answered cases to consult:
>>> recorded_result("O=C(OC(C(F)(F)F)C(F)(F)F)N1CC2CN(Cc3cccc(N4CCC5(CCOC5)C4)c3C(F)(F)F)CC2C1 (stereo not shown)")
"< 100 nM"
>>> recorded_result("CC(=O)N1CCN(c2ccc(CN3CC4CN(C(=O)OC(C(F)(F)F)C(F)(F)F)CC4C3)c(Cl)c2)CC1 (stereo not shown)")
"< 100 nM"
>>> recorded_result("Cc1c(CN2CC3CN(C(=O)OC(C(F)(F)F)C(F)(F)F)CC3C2)cccc1N1C2CCC1COC2 (stereo not shown)")
"< 100 nM"
>>> recorded_result("CN1CCN(c2c(Cl)cccc2CN2CC3CN(C(=O)OC(C(F)(F)F)C(F)(F)F)CC3C2)CC1 (stereo not shown)")
"100 to 1000 nM"
>>> recorded_result("CCN1CCN(c2c(C)cccc2CN2CC3CN(C(=O)OC(C(F)(F)F)C(F)(F)F)CC3C2)CC1 (stereo not shown)")
"100 to 1000 nM"
>>> recorded_result("CC(=O)N1CCC(c2nn(C(C)C)cc2CN2CC3CN(C(=O)OC(C(F)(F)F)C(F)(F)F)CC3C2)CC1 (stereo not shown)")
"100 to 1000 nM"

query: Give its IC50 value. Item: Cn1cc(CN2CC3CN(C(=O)OC(C(F)(F)F)C(F)(F)F)CC3C2)c(-c2ccccc2Cl)n1 (stereo not shown)
result: < 100 nM
